experiment: Partition coefficient (logP); type: physicochemical; conditions: octanol/water; read-out: logP
The molecules listed here are annotated with their logP.
No unit in the answer, please; the number alone is enough.

molecule: O=C(NC(Cc1ccccc1)C(=O)O)c1ccccc1 (stereo not drawn)
logP: -0.63
--
molecule: O=C(NC(Cc1ccccc1)C(=O)O)C1CCCCC1 (stereo not drawn)
logP: -0.27
--
molecule: O=C(O)CCC(NC(=O)c1ccccc1)C(=O)O (stereo not drawn)
logP: -2.29
--
molecule: NCCCCC(NC(=O)c1ccccc1)C(=O)O (stereo not drawn)
logP: -2.02
--
molecule: O=C(Cc1ccccc1)NC(Cc1ccccc1)C(=O)O (stereo not drawn)
logP: -0.13

The recorded logP for entry CC(NC(=O)c1ccccc1)C(=O)O (stereo not drawn) equals -2.14

----------
test: Partition coefficient (logP); assay type: physicochemical; details: octanol/water; read-out: logP
hey, just use criterion met if measured logP is less than -2, otherwise criterion not met

q: logP strictly < -2 for this compound? O=C(CC(=O)c1ccccc1)NC(Cc1ccccc1)C(=O)O (stereo not given)
a: criterion not met

----------
assay: Partition coefficient (logP); assay type: physicochemical; conditions: octanol/water; read-out: logP
hey, just use rule met if measured logP is less than -0.9, otherwise rule not met

q: logP strictly < -0.9 for this compound? O=C(NC(Cc1ccccc1)C(=O)O)c1ccccc1O (configuration not stated)
a: rule not met

q: logP strictly < -0.9 for this compound? COC(=O)C(Cc1ccccc1)NC(C)=O (configuration not stated)
a: rule not met

q: logP strictly < -0.9 for this compound? O=C(NC(Cc1ccccc1)C(=O)O)OCc1ccccc1 (configuration not stated)
a: rule met

q: logP strictly < -0.9 for this compound? CC(C)C(NS(=O)(=O)c1ccccc1)C(=O)O (configuration not stated)
a: rule met

q: logP strictly < -0.9 for this compound? O=C(NCCCC(NC(=O)c1ccccc1)C(=O)O)c1ccccc1 (configuration not stated)
a: rule met

q: logP strictly < -0.9 for this compound? O=C(O)C(Cc1ccccc1)NS(=O)(=O)c1ccccc1 (configuration not stated)
a: rule met

----------
The compounds listed here are annotated with their logP.
assay: Partition coefficient (logP); format: physicochemical; details: octanol/water; read-out: logP

Check out these entries, answers already filled in.
compound: O=C(NC(Cc1ccccc1)C(=O)O)C1CCCC1 (centres undefined)
experimentalValue: -0.77

compound: CNC(Cc1ccccc1)C(=O)O (centres undefined)
experimentalValue: -0.93

compound: CN(C)C(Cc1ccccc1)C(=O)O (centres undefined)
experimentalValue: -0.43

compound: O=C(NC(Cc1ccc(O)cc1)C(=O)O)c1ccccc1 (centres undefined)
experimentalValue: -2.24

compound: CC(C)C(NC(=O)c1ccccc1)C(=O)O (centres undefined)
experimentalValue: -1.3

compound: NC(=O)C(Cc1ccccc1)NC(=O)c1ccccc1 (centres undefined)
experimentalValue: -1.89

The recorded logP for entry "O=C([O-])CNC(=O)c1ccccc1.[Na+]" equals -2.68

The recorded logP for entry CC(=O)NC(Cc1ccccc1)C(N)=O (centres undefined) equals -1.76

The recorded logP for entry NCCCCC(NS(=O)(=O)c1ccccc1)C(=O)O (centres undefined) equals -2.8
